system: EKVX NSCLC; assay: NCI-60 one-dose screen, 48 h; settings: 10 µM
This is part of a sample that, as a whole, favours compounds with a hit. Of some 83,000 tested, about 20% had one in any assay. Active and inactive are the calls of the source. The calls were made as follows: active = growth percent below 10; inactive = the rest.
Give one outcome, nothing more. List: 1 (active), 0 (inactive)

{"SMILES": "NC(N)=N/N=C(\\N=Nc1ccccc1)c1ccc(Cl)cc1", "TESTED_ON": "EKVX NSCLC", "CATEGORY_LABEL": 0}
{"SMILES": "COc1ccc([C@H]2[C@H](C(=O)Nc3cccnc3)c3ccccc3C(=O)N2c2ccccc2)cc1", "TESTED_ON": "EKVX NSCLC", "CATEGORY_LABEL": 0}
{"SMILES": "Cc1c2c(nn1C(=O)c1nn(-c3ccc(Cl)cc3)cc1O)-c1ccccc1CC2", "TESTED_ON": "EKVX NSCLC", "CATEGORY_LABEL": 1}

[in] What did this assay record as the result for `COc1cc2c3c(n([C@H]4CCOC4)c(=O)c2cc1OC)-c1cc2c(cc1C3=O)OCO2` ?
[out] 0

[in] What did this assay record as the result for `COc1cccc(-c2nc3sccn3c2-c2cccc(S(C)(=O)=O)c2)c1` ?
[out] 0

[in] What did this assay record as the result for `Cc1cc(C)nc(NS(=O)(=O)c2ccc(Nc3nc4nc(NCc5ccccc5)nc(-c5ccc(O)cc5)c4c(=O)[nH]3)cc2)n1` ?
[out] 0

[in] What did this assay record as the result for `O=C(O)c1ccc(-n2cc(CNc3ccc(Oc4ccccc4)cc3)c(-c3ccccc3)n2)cc1` ?
[out] 0

[in] What did this assay record as the result for `COc1cc(NC(=O)Nc2cnc(Nc3ccc(N4CCOCC4)cc3)nc2Oc2cccc(OC)c2)cc(OC)c1` ?
[out] 0

[in] What did this assay record as the result for `Cc1cc(NC(=O)c2ccc(C)c(Nc3nccc(-c4cccnc4)n3)c2)cc(-n2cnc(C)c2)c1` ?
[out] 1
